Field: Relative activity. Provide a value for each of the compounds that follow.
Target: UniProt Q6P4F1
Sequence (Q6P4F1 whole entry): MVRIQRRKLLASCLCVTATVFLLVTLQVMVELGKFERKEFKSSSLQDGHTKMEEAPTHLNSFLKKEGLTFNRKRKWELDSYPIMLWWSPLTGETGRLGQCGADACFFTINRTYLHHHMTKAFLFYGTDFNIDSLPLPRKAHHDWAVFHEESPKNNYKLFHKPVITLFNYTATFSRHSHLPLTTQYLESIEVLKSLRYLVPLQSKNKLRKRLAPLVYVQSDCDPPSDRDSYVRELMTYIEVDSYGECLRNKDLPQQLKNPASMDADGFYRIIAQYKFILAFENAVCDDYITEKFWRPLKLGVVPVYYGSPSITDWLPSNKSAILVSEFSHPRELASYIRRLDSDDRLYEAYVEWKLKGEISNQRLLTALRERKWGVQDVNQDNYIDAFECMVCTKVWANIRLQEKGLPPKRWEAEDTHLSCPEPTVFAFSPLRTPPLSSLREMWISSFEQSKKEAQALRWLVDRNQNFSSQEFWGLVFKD
Assay: Acceptor substrate specificity toward Fucosyltransferase for the galactosides of GlcNAc with beta 1,3 or beta 1,4-linkages

The cases that follow already have their Relative activity on record.
OC[C@H]1NC[C@H](O)[C@@H](O)[C@@H]1O: 5
OC[C@@H]1O[C@@H](O[C@H]2[C@H](O)[C@H](O)[C@H](O)S[C@H]2CO)[C@@H](O)[C@@H](O)[C@H]1O: 310
CC(=O)N[C@@H]1[C@@H](O)[C@H](O[C@@H]2O[C@H](CO)[C@H](O)[C@H](O)[C@H]2O)[C@@H](CO)O[C@H]1O: 27
O=C[C@H](O)[C@@H](O)[C@@H](O)[C@H](O)CO: 6

Turning now to a further record.
Output Relative activity of OC[C@H]1OC=C[C@@H](O)[C@H]1O
2
